Target: human mAChR M1 (Homo sapiens)
Sequence (P11229 whole entry): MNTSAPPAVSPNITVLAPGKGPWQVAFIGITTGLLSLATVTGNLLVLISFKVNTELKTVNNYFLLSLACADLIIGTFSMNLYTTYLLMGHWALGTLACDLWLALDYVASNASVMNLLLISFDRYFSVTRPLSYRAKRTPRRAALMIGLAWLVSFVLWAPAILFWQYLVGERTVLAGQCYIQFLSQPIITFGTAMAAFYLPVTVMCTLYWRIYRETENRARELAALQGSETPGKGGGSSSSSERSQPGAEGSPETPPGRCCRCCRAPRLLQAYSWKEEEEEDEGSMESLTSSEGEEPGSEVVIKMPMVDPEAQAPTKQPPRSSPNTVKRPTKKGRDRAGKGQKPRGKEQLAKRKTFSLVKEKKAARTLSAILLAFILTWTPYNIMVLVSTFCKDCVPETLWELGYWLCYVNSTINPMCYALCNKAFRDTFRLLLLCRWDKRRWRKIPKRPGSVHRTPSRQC
Test: mAChR M1 cell-based functional assay (calcium mobilization, PAM activity)
Conditions: CHO-K1 cells expressing hM1; calcium flux (Fluo-4); concentration-dependent increase in the EC20 acetylcholine response
pEC50: −log10 of the molar value.
measure.name: pEC50

Example entries begin here.
Query: Form field: pEC50 recorded for "Cn1cc(-c2ccc(Cc3cc(C(=O)N[C@H]4CCC[C@@H]4O)c4nccn4c3)c(F)c2)cn1" with human mAChR M1 (Homo sapiens) (enter value)
Reply: 6.00

Query: Query for human mAChR M1 (Homo sapiens): what pEC50 does the record show for "Cn1cc(-c2ccc(Cc3cc(C(=O)N[C@H]4CCCC[C@@H]4O)c4ncnn4c3)cn2)cn1" ?
Reply: 6.14

Query: // fetch human mAChR M1 (Homo sapiens) pEC50 for "Cn1ccc(-c2ccc(Cc3cc(C(=O)N[C@H]4CCCC[C@@H]4O)c4ncnn4c3)cn2)n1"
Reply: 5.45

Query: Request - read-out pEC50 | tested on human mAChR M1 (Homo sapiens) | compound "Cn1ccc(-c2ccc(Cc3cc(C(=O)N[C@@H]4CCCC[C@H]4O)c4nccn4c3)cc2)n1"
Reply: 6.50

Query: Form field: pEC50 recorded for "Cn1cc(-c2ccc(Cc3cc(C(=O)N[C@H]4CCCC[C@@H]4O)c4ncnn4c3)cc2)cn1" with human mAChR M1 (Homo sapiens) (enter value)
Reply: 6.13

Query: So what pEC50 did "Cn1ccc(-c2ccc(Cc3cc(C(=O)NC4CC5(COC5)C4)c4nccn4c3)cc2)n1" get with human mAChR M1 (Homo sapiens)?
Reply: 5.37

Query: For human mAChR M1 (Homo sapiens), provide pEC50 of "Cn1ccc(-c2ccc(Cc3cc(C(=O)N[C@@H]4CCC[C@H]4O)c4nccn4c3)cc2)n1" please.
Reply: 5.82

Query: Report pEC50 for "Cc1c(Cc2ccc(-c3ccn(C)n3)cc2)cc(C(=O)N[C@H]2CCCC[C@@H]2O)c2nccn12" tested on human mAChR M1 (Homo sapiens).
Reply: 6.86

a. Cn1cc(-c2ccc(Cc3cc(C(=O)N[C@H]4CCCC[C@@H]4O)c4nccn4c3)c(F)c2)cn1
b. Cn1cc(-c2ccc(Cc3cc(C(=O)N[C@H]4CCOC[C@@H]4O)c4ncnn4c3)c(F)c2)cn1
Query: Which gives the smaller pEC50 number: a or b ? Use the label to indicate which entry you chose.
Reply: b
